Target: T1, human TREM2 Fc fusion (entire TREM2 ECD; only one Fc arm fused to TREM2) (human, UniProt Q9NZC2 19-174)
T1 construct: also called huTREM2-Fc; recombinant hTREM2
T1 sequence: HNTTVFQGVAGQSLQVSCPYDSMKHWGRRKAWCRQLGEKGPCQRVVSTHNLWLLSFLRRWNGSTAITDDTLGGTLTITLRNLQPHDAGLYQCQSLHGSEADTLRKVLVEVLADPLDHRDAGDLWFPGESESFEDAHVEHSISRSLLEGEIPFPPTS
Assay: BLI, Fab, monovalent
Give pKd for every item shown.
Give bare numbers, as −log10 of the molar value.

Guide cases for pKd, answers given:
AL2p-16 (antibody, V domains shown, Fab and IgG formats under one id) VH: QVQLVQSGAEVKKPGSSVKVSCKASGYAFSSHWMNWVRQAPGQGLEWMGRIYPGDGDTNYAQKFRGRVTITADESTSTAYMELSSLRSEDTAVYYCARLLRNQPGASYAMDYWGQGTLVTVSS VL: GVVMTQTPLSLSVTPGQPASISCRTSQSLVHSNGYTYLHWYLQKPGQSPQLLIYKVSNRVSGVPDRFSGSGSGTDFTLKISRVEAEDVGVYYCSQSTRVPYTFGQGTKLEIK
8.74
AL2p-26 (antibody, V domains shown, Fab and IgG formats under one id) VH: QVQLVQSGAEVKKPGSSVKVSCKASGYAFSSHWMNWVRQAPGQGLEWMGRIYPGGGDTNYAQKRQGRVTITADESTSTAYMELSSLRSEDTAVYYCARLLRNQPGESYAMDYWGQGTLVTVSS VL: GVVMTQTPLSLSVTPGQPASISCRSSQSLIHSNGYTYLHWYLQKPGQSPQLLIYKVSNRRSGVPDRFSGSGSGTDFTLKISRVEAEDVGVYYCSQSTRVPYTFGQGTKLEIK
8.50

Next, consider the following binder.
Tell me the measured pKd of AL2p-17 (antibody, V domains shown, Fab and IgG formats under one id) VH: QVQLVQSGAEVKKPGSSVKVSCKASGYAFSSHWMNWVRQAPGQGLEWMGRIYPGDGDTNYAQKRQGRVTITADESTSTAYMELSSLRSEDTAVYYCARLLRNQPGESYAMDYWGQGTLVTVSS VL: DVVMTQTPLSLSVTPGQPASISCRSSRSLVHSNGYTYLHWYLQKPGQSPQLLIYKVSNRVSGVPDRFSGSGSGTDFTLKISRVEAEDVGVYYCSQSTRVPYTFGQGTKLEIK , please. 8.32
